# measured_on: human nerve growth factor (beta-NGF) (human, UniProt P01138 122-241)
# Sequence (P01138 122-241): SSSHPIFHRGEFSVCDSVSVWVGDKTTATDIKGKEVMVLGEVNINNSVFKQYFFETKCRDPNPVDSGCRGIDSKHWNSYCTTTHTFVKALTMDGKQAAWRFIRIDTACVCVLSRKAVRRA
# experiment: purified scFv, inhibition of human NGF binding to TrkA fusion protein
endpoint_name: pIC50
Give bare numbers, as −log10 of the molar value.

Please state pIC50 for every binder in the list that follows.
1. 1021E5 scFv (scFv, part only; not given: Linker and tags, V domains shown, not shown: another chain or arm of the molecule; small tags and cut ends) VH: EVQLVQSGAEVKKPGSSVKVSCKASGGTFSTYGISWVRQAPGQGLEWIGGIIPIFDTGNSAQSFQGRVTITADESTSTAYMEVSSLRSDDTAVYYCASSSRIYDYAGGDHYYYDMDVWGQGTMVTVSS VL: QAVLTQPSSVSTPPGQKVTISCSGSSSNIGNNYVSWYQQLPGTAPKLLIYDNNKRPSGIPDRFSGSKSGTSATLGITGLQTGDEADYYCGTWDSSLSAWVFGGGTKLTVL
2. 1134D9 scFv (scFv, V domains shown, also called LOT1134D09) VH: EVQLVQSGAEVKKPGSSVKVSCKASGGTFSTYGISWVRQAPGQGLEWIGGIIPIFDTGNSAQSFQGRVAITADESTSTAYMEVSSLRSDDTAVYYCASSSRIYDLNPSLTAYYDMDVWGQGTMVTVSS VL: QAVLTQPSSVSTPPGQKVTISCSGSSSNIGNNYVSWYQQLPGTAPKLLIYDNNKRPSGIPDRFSGSKSGTSATLGITGLQTGDEADYYCGTWDSGLSAWVFGGGTKLTVL

1. 7.03
2. 9.85
